tested on: T. brucei ∆pkar/∆pkar (pkar KO) cells; test: microbe, parasite or virus in culture; format: cell-based, Trypanosoma brucei; details: Trypanosoma brucei, read-out: EC50, Alamar blue cell viability assay, KO, individual replicate results; pkar KO cells

| Chemical Smiles | Assay Target | EC50 |
| --- | --- | --- |
| N#Cc1cn([C@@H]2O[C@H](CO)[C@@H](O)[C@H]2O)c2ncnc(N)c12 | T. brucei ∆pkar/∆pkar (pkar KO) cells | 941 nM |

----------
target: T. brucei PKAR-PKAC1 holoenzyme (Trypanosoma brucei); test: biochemical; assay type: biochemical
Sequence (Q38DR5 entry or part of it): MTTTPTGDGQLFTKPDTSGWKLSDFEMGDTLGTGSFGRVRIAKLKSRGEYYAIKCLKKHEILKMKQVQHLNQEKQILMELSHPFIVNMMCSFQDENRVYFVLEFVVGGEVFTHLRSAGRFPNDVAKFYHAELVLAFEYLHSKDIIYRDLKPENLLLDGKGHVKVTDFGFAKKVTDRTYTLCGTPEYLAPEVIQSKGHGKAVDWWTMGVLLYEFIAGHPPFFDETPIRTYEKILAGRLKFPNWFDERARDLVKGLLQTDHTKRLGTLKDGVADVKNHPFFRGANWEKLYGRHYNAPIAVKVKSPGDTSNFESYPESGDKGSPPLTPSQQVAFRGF
Sequence (Q9GU80 entry or part of it): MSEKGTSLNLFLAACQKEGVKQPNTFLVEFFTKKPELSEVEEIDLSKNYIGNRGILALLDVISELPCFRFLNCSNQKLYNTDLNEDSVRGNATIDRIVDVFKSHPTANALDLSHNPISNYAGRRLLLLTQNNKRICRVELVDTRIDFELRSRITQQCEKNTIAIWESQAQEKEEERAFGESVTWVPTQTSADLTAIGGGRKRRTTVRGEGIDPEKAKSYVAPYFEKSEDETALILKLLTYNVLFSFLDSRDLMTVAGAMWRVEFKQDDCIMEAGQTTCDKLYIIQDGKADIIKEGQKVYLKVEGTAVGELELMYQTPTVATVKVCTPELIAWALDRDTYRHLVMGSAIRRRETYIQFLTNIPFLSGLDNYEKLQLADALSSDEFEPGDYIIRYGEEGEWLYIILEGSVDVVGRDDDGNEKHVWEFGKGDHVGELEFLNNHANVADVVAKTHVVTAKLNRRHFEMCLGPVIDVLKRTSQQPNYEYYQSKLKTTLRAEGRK
In this section, each of the compounds is paired with its reported EC50.

| Chemical Smiles | Unit Text | EC50 |
| --- | --- | --- |
| NC(=O)c1cn([C@@H]2O[C@H](CO)[C@@H](O)[C@H]2O)c2ncnc(N)c12 | µM | 10.8 |
| Nc1ncnc2c1ccn2[C@@H]1O[C@H](CO)[C@@H](O)[C@H]1O | µM | 5 |
| Nc1ncnc2c1c(Br)cn2[C@@H]1O[C@H](CO)[C@@H](O)[C@H]1O | µM | 1.7 |
| Nc1ncnc2c1c(I)cn2[C@@H]1O[C@H](CO)[C@@H](O)[C@H]1O | µM | 0.203 |

----------
test system: T. brucei ∆pkar/∆pkar (pkar KO) cells; test: microbe, parasite or virus in culture; type: cell-based, Trypanosoma brucei; settings: Trypanosoma brucei, 72 h, read-out: IC50 growth pkar KO
Endpoint: IC50 (µM)

| Chemical Smiles | Unit Text | Limit Sign | Obs Value |
| --- | --- | --- | --- |
| OCCN(CCO)c1nc(N2CCCCC2)c2nc(N(CCO)CCO)nc(N3CCCCC3)c2n1 | µM | = | 16.3 |
| N#Cc1cn([C@@H]2O[C@H](CO)[C@@H](O)[C@H]2O)c2ncnc(O)c12 | µM | ≥ | 125 |
| Nc1ncnc2c1c(I)cn2[C@@H]1O[C@H](CO)[C@@H](O)[C@H]1O | µM | = | 0.346 |
| Nc1ncnc2c1c(Br)cn2[C@@H]1O[C@H](CO)[C@@H](O)[C@H]1O | µM | = | 1.01 |
| N#Cc1cn([C@@H]2O[C@H](CO)[C@@H](O)[C@H]2O)c2ncnc(N)c12 | µM | = | 0.69 |
| NC(=O)c1cn([C@@H]2O[C@H](CO)[C@@H](O)[C@H]2O)c2ncnc(N)c12 | µM | = | 1.55 |

----------
tested on: T. brucei BSF cells (WT); assay: Alamar blue cell viability assay, wild type; details: Trypanosoma brucei, read-out: EC50, Alamar blue cell viability assay, WT, individual replicate results; wild type cells; fit ambiguous, bound given in µM;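 also: trypanosomes seeded at 5×10^3 per ml and grown 72 h with compound, then resazurin 0.5 mM added for 4 h as the viability read-out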

| Compound | EC50 |
| --- | --- |
| N#Cc1cn([C@@H]2O[C@H](CO)[C@@H](O)[C@H]2O)c2ncnc(O)c12 [7-CN-7-C-Ino, 7-Cyano-7-deazainosine] | > 125 µM |

----------
tested on: T. brucei PKA holoenzyme (Ty1-PKAC1); assay type: biochemical, Trypanosoma brucei; settings: 1 mM + 5 µM PKI(5-24); Supp Fig 3c

| Compound | in vitro kinase assay [CPM], PKI, CPM |
| --- | --- |
| O=c1[nH]cnc2c1ncn2[C@@H]1O[C@@H]2COP(=O)(O)O[C@H]2[C@H]1O [cIMP, inosine-3’,5’-cyclic monophosphate] | 620.6 |
| O=c1ccn([C@@H]2O[C@@H]3COP(=O)(O)O[C@H]3[C@H]2O)c(=O)[nH]1 [cUMP, uridine -3’,5’-cyclic monophosphate] | 572.53 |
| O=c1[nH]c(=O)c2ncn(C3OC4COP(=O)(O)OC4C3O)c2[nH]1 (stereo not shown) [cXMP, xanthosine-3’,5’-cyclic monophosphate] | 870.13 |
| Nc1nc2c(ncn2[C@@H]2O[C@@H]3COP(=O)(O)O[C@H]3[C@H]2O)c(=O)[nH]1 | 1928.6 |

----------
molecular target: T. brucei PKAR(199–499) (Trypanosoma brucei, UniProt Q9GU80); assay: biochemical; type: binding
Sequence (Q9GU80 entry or part of it): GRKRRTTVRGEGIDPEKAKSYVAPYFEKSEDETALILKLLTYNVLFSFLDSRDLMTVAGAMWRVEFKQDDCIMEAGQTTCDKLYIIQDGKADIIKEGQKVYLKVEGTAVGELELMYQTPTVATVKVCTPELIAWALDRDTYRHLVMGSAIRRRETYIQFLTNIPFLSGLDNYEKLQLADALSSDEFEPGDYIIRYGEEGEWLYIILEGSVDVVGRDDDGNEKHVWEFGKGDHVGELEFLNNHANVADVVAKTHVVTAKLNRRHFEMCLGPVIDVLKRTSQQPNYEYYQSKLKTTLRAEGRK
Endpoint: Kd

| Molecule | Endpoint | Obs Value |
| --- | --- | --- |
| Nc1ncnc2c1c(I)cn2[C@@H]1O[C@H](CO)[C@@H](O)[C@H]1O [5-I-Tu, 7-Iodo-7-deazaadenosine] | Kd | 32 nM |

Data origin: paper PMC6440977
